As shown below, each of these compounds has a reported CLint scaled value.
# MEASUREMENT_NOTES: In vitro DMPK intrinsic clearance, mouse
# Format: in vitro ADME
# CONDITION: read-out: Intrinsic clearance mCLINT
EXPERIMENTAL_ENDPOINT: CLint scaled (mL/min/kg)

COMPOUND	READING
COc1ccc2nc(C)cc(-c3cnc4cc(-c5ccc(N6CCN(C(C)=O)CC6)cc5)ccn34)c2c1 [Compound 48]	349
COc1ccc2nc(C)cc(-c3cnc4cc(-c5ccc(C6CCN(C)CC6)cc5)ccn34)c2c1 [Compound 95]	107

* * *

# TESTED_TARGET: ALK6 (Homo sapiens)
# Sequence (O00238 14-502): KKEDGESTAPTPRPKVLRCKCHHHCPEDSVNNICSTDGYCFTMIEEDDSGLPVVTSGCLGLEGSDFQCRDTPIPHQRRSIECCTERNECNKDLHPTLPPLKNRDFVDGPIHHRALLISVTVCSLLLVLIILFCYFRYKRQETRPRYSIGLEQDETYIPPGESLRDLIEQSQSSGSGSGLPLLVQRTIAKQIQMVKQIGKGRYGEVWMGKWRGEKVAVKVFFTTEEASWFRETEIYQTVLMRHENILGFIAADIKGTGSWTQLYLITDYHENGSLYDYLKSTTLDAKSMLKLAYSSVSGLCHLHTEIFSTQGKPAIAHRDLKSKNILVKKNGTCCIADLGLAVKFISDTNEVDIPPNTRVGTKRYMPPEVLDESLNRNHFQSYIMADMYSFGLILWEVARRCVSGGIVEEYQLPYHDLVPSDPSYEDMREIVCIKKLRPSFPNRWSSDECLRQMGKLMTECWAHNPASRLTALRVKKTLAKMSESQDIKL
pKi: −log10 of the molar value.
EXPERIMENTAL_ENDPOINT: pKi

ITEM_SMILES	TESTED_TARGET	READING
COc1ccc2nc(C)cc(-c3cnc4cc(-c5ccc(N6CCN(C(C)=O)CC6)cc5)ccn34)c2c1	ALK6 (Homo sapiens)	6.02

* * *

# MEASUREMENT_NOTES: in vitro
# CONDITION: rat, microsomes

ITEM_SMILES	half-life
Cc1cc(-c2cnc3cc(-c4ccc(N5CCNCC5)cc4)ccn23)c2cc(F)cc(F)c2n1	30 min
Cc1cc(-c2cnc3cc(-c4ccc(N5CCNCC5)cc4)ccn23)c2ccccc2n1	21 min
Cc1cc(-c2cnc3cc(-c4ccc(N5CCNCC5)cc4)ccn23)c2cc(F)ccc2n1	23 min

* * *

# MEASUREMENT_NOTES: In vivo dose escalation, rat (oral)
# CONDITION: Dose 30 mg/Kg
EXPERIMENTAL_ENDPOINT: AUC(0-t) (ng·h/mL)

COMPOUND	EXPERIMENTAL_ENDPOINT	UNIT_ABBREVIATION	READING
Cc1cc(-c2cnc3cc(-c4ccc(N5CCNCC5)cc4)ccn23)c2cc(F)cc(F)c2n1 [Compound 17]	AUC(0-t)	ng·h/mL	14700
Cc1cc(-c2cnc3cc(-c4ccc(N5CCNCC5)cc4)ccn23)c2ccccc2n1 [Compound 25]	AUC(0-t)	ng·h/mL	20600
Cc1cc(-c2cnc3cc(-c4ccc(N5CCNCC5)cc4)ccn23)c2cc(F)ccc2n1 [Compound 20]	AUC(0-t)	ng·h/mL	31400

* * *

# TESTED_TARGET: TGFβR2 (Homo sapiens, UniProt P37173)
# Sequence (P37173 23-567): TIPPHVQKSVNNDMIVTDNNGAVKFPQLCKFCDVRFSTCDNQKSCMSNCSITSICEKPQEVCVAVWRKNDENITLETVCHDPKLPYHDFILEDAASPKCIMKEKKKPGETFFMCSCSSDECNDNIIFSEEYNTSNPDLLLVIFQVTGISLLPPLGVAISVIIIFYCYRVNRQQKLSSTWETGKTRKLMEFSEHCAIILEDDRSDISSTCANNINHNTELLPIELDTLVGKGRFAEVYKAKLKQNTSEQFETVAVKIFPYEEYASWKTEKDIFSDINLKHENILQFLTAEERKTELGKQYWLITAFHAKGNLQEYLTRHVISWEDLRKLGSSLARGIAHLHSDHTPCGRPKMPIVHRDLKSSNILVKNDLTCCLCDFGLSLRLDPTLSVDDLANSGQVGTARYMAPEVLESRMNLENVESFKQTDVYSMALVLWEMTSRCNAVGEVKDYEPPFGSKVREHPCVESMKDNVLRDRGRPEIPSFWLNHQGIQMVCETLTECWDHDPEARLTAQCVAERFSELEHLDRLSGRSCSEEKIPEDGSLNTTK

ITEM_SMILES	TESTED_TARGET	UNIT_ABBREVIATION	Ki
COc1ccc2nc(C)cc(-c3cnc4cc(-c5ccc(C6CCN(C)CC6)cc5)ccn34)c2c1	TGFβR2 (Homo sapiens, UniProt P37173)	µM	0.134

* * *

# MEASUREMENT_NOTES: Plasma protein binding, rat
# Format: in vitro ADME
# CONDITION: read-out: Plasma protein binding (% Fu) Rat

MOLECULE	fraction unbound
Cc1cc(-c2cnc3cc(-c4ccc(C5CCN(C(C)C)CC5)cc4)ccn23)c2cc(F)ccc2n1 [Compound 168]	0.014

* * *

# MEASUREMENT_NOTES: In vivo dose escalation, rat (oral)
# CONDITION: Dose 100 mg/Kg

ITEM_SMILES	UNIT_ABBREVIATION	Cmax
Cc1cc(-c2cnc3cc(-c4ccc(N5CCNCC5)cc4)ccn23)c2cc(F)ccc2n1	ng/mL	4150

* * *

# MEASUREMENT_NOTES: Plasma protein binding, human
# Assay type: in vitro ADME
# CONDITION: read-out: Plasma protein binding (% Fu) Human
EXPERIMENTAL_ENDPOINT: fraction unbound

MOLECULE	READING
Cc1cc(-c2cnc3cc(-c4ccc(C5CCN(C(C)C)CC5)cc4)ccn23)c2cc(F)ccc2n1 [Compound 168]	0.021
COc1ccc2nc(C)cc(-c3cnc4cc(-c5ccc(N6CCN(C(C)=O)CC6)cc5)ccn34)c2c1 [Compound 48]	0.012
COc1ccc2nc(C)cc(-c3cnc4cc(-c5ccc(C6CCN(C)CC6)cc5)ccn34)c2c1 [Compound 95]	0.015

* * *

# MEASUREMENT_NOTES: In vitro DMPK intrinsic clearance, human
# Type: in vitro ADME
# CONDITION: read-out: Intrinsic clearance hCLHEP
Rule: condition met for CLint scaled not less than 10 mL/min/kg, condition not met for anything less.

ITEM_SMILES	DISCRETE_LABEL
COc1ccc2nc(C)cc(-c3cnc4cc(-c5ccc(C6CCN(C)CC6)cc5)ccn34)c2c1	condition met
COc1ccc2nc(C)cc(-c3cnc4cc(-c5ccc(N6CCN(C(C)=O)CC6)cc5)ccn34)c2c1	condition met
Cc1cc(-c2cnc3cc(-c4ccc(N5CCNCC5)cc4)ccn23)c2ccccc2n1	condition met
Cc1cc(-c2cnc3cc(-c4ccc(N5CCNCC5)cc4)ccn23)c2cc(F)cc(F)c2n1	condition not met
Cc1cc(-c2cnc3cc(-c4ccc(C5CCN(C(C)C)CC5)cc4)ccn23)c2cc(F)ccc2n1	condition not met
Cc1cc(-c2cnc3cc(-c4ccc(N5CCNCC5)cc4)ccn23)c2cc(F)ccc2n1	condition not met

* * *

Parameter Tmax: see the listing below.
# MEASUREMENT_NOTES: In vivo dose escalation, rat (oral)
# CONDITION: Dose 10 mg/Kg

COMPOUND	Tmax (h)
Cc1cc(-c2cnc3cc(-c4ccc(N5CCNCC5)cc4)ccn23)c2ccccc2n1 [Compound 25]	5
Cc1cc(-c2cnc3cc(-c4ccc(N5CCNCC5)cc4)ccn23)c2cc(F)ccc2n1 [Compound 20]	3.5

* * *

# MEASUREMENT_NOTES: Plasma protein binding, mouse
# Format: in vitro ADME
# CONDITION: read-out: Plasma protein binding (% Fu) Mouse

ITEM_SMILES	fraction unbound
COc1ccc2nc(C)cc(-c3cnc4cc(-c5ccc(C6CCN(C)CC6)cc5)ccn34)c2c1	0.006
Cc1cc(-c2cnc3cc(-c4ccc(C5CCN(C(C)C)CC5)cc4)ccn23)c2cc(F)ccc2n1	0.009
COc1ccc2nc(C)cc(-c3cnc4cc(-c5ccc(N6CCN(C(C)=O)CC6)cc5)ccn34)c2c1	0.058

* * *

# MEASUREMENT_NOTES: Plasma:Brain level study (PO and IV)
# Assay type: in vivo
# CONDITION: brain/plasma; 10 mg/kg; 5 h, IV; read-out: B:P
Reported Kp at 5 h is given for each of the following molecules.

ITEM_SMILES	Kp at 5 h
Cc1cc(-c2cnc3cc(-c4ccc(N5CCNCC5)cc4)ccn23)c2cc(F)ccc2n1	0.64
Cc1cc(-c2cnc3cc(-c4ccc(N5CCNCC5)cc4)ccn23)c2ccccc2n1	1.27
Cc1cc(-c2cnc3cc(-c4ccc(N5CCNCC5)cc4)ccn23)c2cc(F)cc(F)c2n1	1.48

* * *

# MEASUREMENT_NOTES: in vitro
# CONDITION: monkey, microsomes
EXPERIMENTAL_ENDPOINT: microsomal CLint (µL/min/mg)

COMPOUND	EXPERIMENTAL_ENDPOINT	UNIT_ABBREVIATION	READING
Cc1cc(-c2cnc3cc(-c4ccc(N5CCNCC5)cc4)ccn23)c2ccccc2n1 [Compound 25]	microsomal CLint	µL/min/mg	59
Cc1cc(-c2cnc3cc(-c4ccc(N5CCNCC5)cc4)ccn23)c2cc(F)ccc2n1 [Compound 20]	microsomal CLint	µL/min/mg	44
Cc1cc(-c2cnc3cc(-c4ccc(N5CCNCC5)cc4)ccn23)c2cc(F)cc(F)c2n1 [Compound 17]	microsomal CLint	µL/min/mg	33

* * *

# MEASUREMENT_NOTES: in vitro
# CONDITION: monkey, microsomes
Reported values of half-life for individual entries

ITEM_SMILES	UNIT_ABBREVIATION	half-life
Cc1cc(-c2cnc3cc(-c4ccc(N5CCNCC5)cc4)ccn23)c2cc(F)ccc2n1	min	32
Cc1cc(-c2cnc3cc(-c4ccc(N5CCNCC5)cc4)ccn23)c2ccccc2n1	min	24
Cc1cc(-c2cnc3cc(-c4ccc(N5CCNCC5)cc4)ccn23)c2cc(F)cc(F)c2n1	min	42

* * *

# MEASUREMENT_NOTES: In vivo dose escalation, rat (oral)
# CONDITION: Dose 10 mg/Kg

MOLECULE	Cmax, ng/mL
Cc1cc(-c2cnc3cc(-c4ccc(N5CCNCC5)cc4)ccn23)c2cc(F)ccc2n1 [Compound 20]	652

* * *

# Papp A→B per entry
# Tested on: MDR1
# MEASUREMENT_NOTES: in vitro
# CONDITION: dog, MDCK-MDR1

ITEM_SMILES	Papp A→B
Cc1cc(-c2cnc3cc(-c4ccc(N5CCNCC5)cc4)ccn23)c2cc(F)ccc2n1	2.54 ×10⁻⁶ cm/s
Cc1cc(-c2cnc3cc(-c4ccc(N5CCNCC5)cc4)ccn23)c2cc(F)cc(F)c2n1	2.2 ×10⁻⁶ cm/s
Cc1cc(-c2cnc3cc(-c4ccc(N5CCNCC5)cc4)ccn23)c2ccccc2n1	2.41 ×10⁻⁶ cm/s

* * *

# MEASUREMENT_NOTES: in vitro
# CONDITION: Human hepatocytes
// values below are reported half-life
EXPERIMENTAL_ENDPOINT: half-life

MOLECULE	EXPERIMENTAL_ENDPOINT	READING
Cc1cc(-c2cnc3cc(-c4ccc(N5CCNCC5)cc4)ccn23)c2cc(F)cc(F)c2n1 [Compound 17]	half-life	7.39 h
Cc1cc(-c2cnc3cc(-c4ccc(N5CCNCC5)cc4)ccn23)c2cc(F)ccc2n1 [Compound 20]	half-life	6.57 h
